tgt: T1, HCV Core1-169 recombinant antigen (hepatitis C virus (HCV-1), UniProt P26664 1-169)
T1 sequence: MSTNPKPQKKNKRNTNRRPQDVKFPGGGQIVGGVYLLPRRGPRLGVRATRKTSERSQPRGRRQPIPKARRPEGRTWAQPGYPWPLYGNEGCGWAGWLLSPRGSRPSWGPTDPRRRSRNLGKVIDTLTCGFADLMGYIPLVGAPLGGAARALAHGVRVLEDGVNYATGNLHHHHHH
experiment: sandwich EIA, 25 ng/ml core1-169; capture mAb 208B-741
# if value of OD492 nm reaches 0.4 OD492, tag Yes; if it stays below, tag No

binder	class-assignment
208A-207-271 monoclonal antibody (antibody, V domains shown) VH: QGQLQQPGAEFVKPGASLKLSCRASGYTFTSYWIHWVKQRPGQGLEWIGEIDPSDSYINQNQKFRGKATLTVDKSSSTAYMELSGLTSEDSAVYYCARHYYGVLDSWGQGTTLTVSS VL: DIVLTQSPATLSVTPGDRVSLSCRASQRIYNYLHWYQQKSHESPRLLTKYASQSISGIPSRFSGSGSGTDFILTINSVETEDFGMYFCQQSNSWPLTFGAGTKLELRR	No
HCV 208A-692 monoclonal antibody (antibody, V domains shown) VH: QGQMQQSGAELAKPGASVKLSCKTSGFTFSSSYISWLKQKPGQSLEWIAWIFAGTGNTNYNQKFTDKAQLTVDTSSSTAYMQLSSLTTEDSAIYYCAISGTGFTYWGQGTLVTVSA VL: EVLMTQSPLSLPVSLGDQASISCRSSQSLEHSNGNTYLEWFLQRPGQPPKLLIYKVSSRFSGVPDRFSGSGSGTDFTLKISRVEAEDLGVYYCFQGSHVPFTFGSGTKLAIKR	Yes
208B-612-226 monoclonal antibody (antibody, V domains shown) VH: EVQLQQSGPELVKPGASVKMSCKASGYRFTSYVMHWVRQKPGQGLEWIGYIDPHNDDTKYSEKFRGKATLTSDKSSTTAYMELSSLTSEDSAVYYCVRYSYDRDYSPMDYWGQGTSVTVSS VL: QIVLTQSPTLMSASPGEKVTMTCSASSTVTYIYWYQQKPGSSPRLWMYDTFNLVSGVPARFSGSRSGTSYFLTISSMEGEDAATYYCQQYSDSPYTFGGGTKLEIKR	No
HCV 208A-557 monoclonal antibody (antibody, V domains shown) VH: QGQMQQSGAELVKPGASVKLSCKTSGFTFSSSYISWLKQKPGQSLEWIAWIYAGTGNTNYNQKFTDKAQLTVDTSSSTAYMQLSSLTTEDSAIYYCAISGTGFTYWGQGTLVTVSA VL: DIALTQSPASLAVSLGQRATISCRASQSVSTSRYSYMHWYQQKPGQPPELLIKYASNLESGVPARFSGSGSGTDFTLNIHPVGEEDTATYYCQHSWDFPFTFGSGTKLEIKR	No
HCV 208A-293 monoclonal antibody (antibody, V domains shown) VH: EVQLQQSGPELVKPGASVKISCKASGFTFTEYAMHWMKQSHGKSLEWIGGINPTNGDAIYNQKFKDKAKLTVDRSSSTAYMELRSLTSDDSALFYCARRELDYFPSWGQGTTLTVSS VL: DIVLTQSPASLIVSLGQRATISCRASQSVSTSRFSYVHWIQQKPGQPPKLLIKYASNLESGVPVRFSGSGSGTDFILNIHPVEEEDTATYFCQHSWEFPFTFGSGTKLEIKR	Yes

Measured values drawn from patent US20170052184A1 for this set.
